Data origin: ChEMBL document CHEMBL4513216

# ASSAY EXPLANATION: Toxicity liver stage against HepG2, at 10uM
# Assay type: cell-based
# Design: test concentration 10 uM, cell line HepG2-A16-CD81EGFP
# CONDITION NOTES: human, HepG2-A16-CD81EGFP cells; read-out: INHIBITION

# COMPOUND, DISPLAY UNIT, cytotoxicity at 10 µM
rows = [
    ("CC(=O)NS(=O)(=O)c1ccc(F)cc1C(F)(F)F", "%", 1.25),
    ("Cn1ncc2c1NC(=O)CC2c1c(F)cccc1Cl (stereo unspecified)", "%", 46.1),
    ("CN(C)CCNC(=O)c1ccc(OC2CCN(S(C)(=O)=O)CC2)c(Cl)c1", "%", 1.33),
    ("COc1cc(CN2CC[C@H](NC(C)=O)[C@@H](O)CC2)ccc1F", "%", -9.19),
    ("Cc1nc([C@@H]2C[C@@H]3CCN(Cc4cnn(C)c4)C[C@H]3O2)sc1C", "%", -3.49),
    ("CN1CCCC(C(=O)N2CCC(Oc3ncccn3)CC2)C1 (stereo unspecified)", "%", -5.2),
]
